Answer each item with its documented pIC50.
# Tested on: MCF7/hPRLR (MCF7/PRLR) cells
# PROCEDURE_SUMMARY: Cell viability (cell kill) assay, nuclear counts
# Assay type: cell-based, human
# RUN_PARAMETERS: Table 12, 3 days
// pIC50 here means minus log10 of the molar concentration (mol/L)

Give the measured pIC50 for H1H6762P-DM1 (conjugate) VH: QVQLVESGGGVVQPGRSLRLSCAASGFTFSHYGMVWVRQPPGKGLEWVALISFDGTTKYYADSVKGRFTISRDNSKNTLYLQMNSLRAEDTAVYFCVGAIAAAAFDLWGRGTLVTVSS VL: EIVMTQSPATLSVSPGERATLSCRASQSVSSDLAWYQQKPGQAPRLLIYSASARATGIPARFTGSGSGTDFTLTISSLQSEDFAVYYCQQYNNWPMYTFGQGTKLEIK
9.34

Provide one value: measured pIC50 of H1H6782P-DM1: anti-PRLR antibody H1H6782P conjugated to DM1 through an SMCC linker (conjugate) VH: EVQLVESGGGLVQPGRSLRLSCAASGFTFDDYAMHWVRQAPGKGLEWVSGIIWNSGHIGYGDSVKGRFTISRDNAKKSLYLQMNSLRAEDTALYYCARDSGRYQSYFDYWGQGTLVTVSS VL: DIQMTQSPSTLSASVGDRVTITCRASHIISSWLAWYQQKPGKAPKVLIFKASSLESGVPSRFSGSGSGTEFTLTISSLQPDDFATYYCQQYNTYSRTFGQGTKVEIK
9.19

Cited source: patent US9688764B2
